// provenance: patent US8461328B2

Biological target: JAK1 (Homo sapiens, UniProt P23458)
Construct: made in house; host or cells: SF9 insect cells (baculovirus)
Sequence (P23458 852-1154): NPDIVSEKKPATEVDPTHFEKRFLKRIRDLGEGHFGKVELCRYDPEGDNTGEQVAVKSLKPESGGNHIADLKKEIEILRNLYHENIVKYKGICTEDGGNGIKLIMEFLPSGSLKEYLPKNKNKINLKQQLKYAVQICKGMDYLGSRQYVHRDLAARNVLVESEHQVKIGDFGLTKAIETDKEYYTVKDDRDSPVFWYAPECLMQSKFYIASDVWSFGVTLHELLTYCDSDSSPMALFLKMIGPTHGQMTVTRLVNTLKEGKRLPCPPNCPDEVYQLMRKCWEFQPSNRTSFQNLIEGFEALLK
Test: JAK1 inhibition (Table 4)
Assay type: biochemical
Conditions: read-out: JAK1 Ki
Reported pKi values for a set of compounds
The quantity pKi is defined as the negative base-10 logarithm of the molar concentration.

Worked examples follow.
- Compound: "CN(C(=O)Cc1nc2cnc3[nH]ccc3c2n1C1CCN(Cc2ccccc2)CC1)C1CCCC1"
  Assayed system: "JAK1 (Homo sapiens, UniProt P23458)"
  pKi: 7.39
- Compound: "CCN1CC[C@@H](n2c(CNS(C)(=O)=O)nc3cnc4[nH]ccc4c32)[C@@H](F)C1"
  Assayed system: "JAK1 (Homo sapiens, UniProt P23458)"
  pKi: 8.15
- Compound: "O=C(CC1CC1)N1CCC[C@@H](n2cnc3cnc4[nH]ccc4c32)C1"
  Assayed system: "JAK1 (Homo sapiens, UniProt P23458)"
  pKi: 8.48

Q) If you can, please state the reported pKi value of OC(c1nc2cnc3[nH]ccc3c2n1C1CCCCC1)C1CC1 (racemic) .
A) 9.02

Q) If you can, please state the reported pKi value of CC(O)c1nc2cnc3[nH]ccc3c2n1C1CCN(Cc2csc(C(F)(F)F)n2)CC1 (racemic) .
A) 8.31

Q) If you can, please state the reported pKi value of `CC(C)(C)OC(=O)N1CCC[C@@H]1C(=O)N1CCC(n2cnc3cnc4[nH]ccc4c32)CC1` .
A) 6.66

Q) If you can, please state the reported pKi value of `CCn1cc(CN2CCC(n3c([C@@H](C)O)nc4cnc5[nH]ccc5c43)CC2)c(C)n1` .
A) 7.03

Q) If you can, please state the reported pKi value of N#CCCN1CCC(n2c(COCC3CCOC3)nc3cnc4[nH]ccc4c32)CC1 (centres unmarked) .
A) 7.41

Q) If you can, please state the reported pKi value of CS(=O)(=O)NC1CCC(n2cnc3cnc4[nH]ccc4c32)C1 (racemic) .
A) 8.59

Q) If you can, please state the reported pKi value of `OCCN1CC[C@@H](n2cnc3cnc4[nH]ccc4c32)C1` .
A) 7.02

Q) If you can, please state the reported pKi value of `N#C[C@H]1CC[C@H](n2cnc3cnc4[nH]ccc4c32)CC1` .
A) 8.41

Q) If you can, please state the reported pKi value of `C[C@@H](O)c1nc2cnc3[nH]ccc3c2n1[C@H]1CC[C@@H](n2cncn2)CC1` .
A) 9.06

Q) If you can, please state the reported pKi value of `N#CCCN1CC[C@@H](n2cnc3cnc4[nH]ccc4c32)C1` .
A) 7.99

Q) If you can, please state the reported pKi value of CCC(COC)n1c(C(C)O)nc2cnc3[nH]ccc3c21 (single isomer, unassigned) [Example 182a] .
A) 6.54

Q) If you can, please state the reported pKi value of `Cc1nc2ncccn2c1CN1CCC(n2c([C@@H](C)O)nc3cnc4[nH]ccc4c32)CC1` .
A) 7.60

Q) If you can, please state the reported pKi value of `CC(C)(C)OC(=O)N1CCC(C)(n2cnc3cnc4[nH]ccc4c32)CC1` .
A) 7.60

Q) If you can, please state the reported pKi value of `N#CCCN1CCC(n2c(CC3CCCC3)nc3cnc4[nH]ccc4c32)CC1` .
A) 7.71
